Molecular target: NK-1 receptor (Homo sapiens, UniProt P25103)
Construct: endogenous in cells
Sequence (P25103 whole entry): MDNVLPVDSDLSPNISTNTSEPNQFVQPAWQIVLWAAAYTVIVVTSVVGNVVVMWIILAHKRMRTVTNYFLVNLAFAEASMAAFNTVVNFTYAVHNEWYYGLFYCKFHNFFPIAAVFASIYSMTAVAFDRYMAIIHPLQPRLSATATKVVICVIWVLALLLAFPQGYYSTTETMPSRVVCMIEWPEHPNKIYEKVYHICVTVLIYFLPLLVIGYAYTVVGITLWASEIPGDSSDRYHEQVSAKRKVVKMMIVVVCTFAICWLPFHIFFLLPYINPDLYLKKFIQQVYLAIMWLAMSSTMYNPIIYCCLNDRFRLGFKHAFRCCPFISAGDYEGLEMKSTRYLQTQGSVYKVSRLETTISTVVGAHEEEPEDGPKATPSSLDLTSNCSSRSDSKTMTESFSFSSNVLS
Test: NK-1 Receptor Binding Assay (125I-labeled substance P, IM9 cells)
Conditions: inhibits fifty percent of binding of 125I-substance P to IM9 cells
Procedure: The biological activity of the compounds of the present invention was evaluated employing an initial screening assay which rapidly and accurately measured the binding of the tested compound to known NK-1 and NK-2 receptor sites. Assays useful for evaluating tachykinin receptor antagonists are well known in the art. NK-1 Receptor Binding Assay […] The IM9 cell line is a well-characterized and readily available human cell line. […]
Value Kind: pIC50
One number for each entry, as −log10 of the molar value.

Below: 3 compounds and their reported pIC50.
INSERT INTO measurements (compound, value_kind, reported_measurement) VALUES
  ('CCCCCCN(CC(Cc1c[nH]c2ccccc12)NC(=O)CN1CCN(c2ccccc2)CC1)C(C)=O (stereo not shown) [Example 40]', 'pIC50', 7.67),
  ('COc1ccccc1CN(CC(NC(=O)CN1CCN(c2ccccc2)CC1)c1ccc(Cl)c(Cl)c1)C(C)=O (stereo not shown) [Example 139]', 'pIC50', 6.40),
  ('COc1ccccc1CN(CC(Cc1c[nH]c2ccccc12)NC(=O)CN1CCN(C)CC1)C(C)=O (stereo not shown) [Example 71]', 'pIC50', 8.12);

Req: What pIC50 value was documented for this compound, COc1ccccc1CN(CC(Cc1c[nH]c2ccccc12)NC(=O)CCCC(=O)c1ccccc1)C(C)=O (stereo not shown) [Example 98] ?
Resp: 7.68
